Target: Recombinant human HSD17B13 (Homo sapiens (Human), UniProt Q7Z5P4)
Sequence (Q7Z5P4 20-300): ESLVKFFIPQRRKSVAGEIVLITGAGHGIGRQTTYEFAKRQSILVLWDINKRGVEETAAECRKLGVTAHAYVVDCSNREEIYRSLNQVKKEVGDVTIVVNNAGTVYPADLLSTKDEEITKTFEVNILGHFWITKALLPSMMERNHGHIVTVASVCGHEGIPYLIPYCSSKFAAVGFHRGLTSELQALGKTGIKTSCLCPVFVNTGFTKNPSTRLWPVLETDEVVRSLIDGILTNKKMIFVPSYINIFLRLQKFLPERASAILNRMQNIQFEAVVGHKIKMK
Assay: HSD17B13 rapid-fire mass spectrometry assay (RF/MS assay)
Conditions: inhibition of HSD17B13; LTB4 10 μM, NAD+ 0.5 mM, RT 3 h; IC50 ranges A-E

compound: COc1cc(C(=O)O)ccc1NS(=O)(=O)c1cccc(-c2ccc(C3CCC(F)(F)CC3)cc2)c1F [Example 476]
IC50: 100 to 500 nM

compound: COc1cc(C(=O)O)c(F)cc1NS(=O)(=O)c1csc(-c2ccc(C3=CCC(C)(C)CC3)cn2)n1 [Example 565]
IC50: 100 to 500 nM

compound: COc1cc(C(=O)O)c(F)cc1NS(=O)(=O)c1csc(-c2ccc(C3(O)CCC(C)(C)CC3)cc2)n1 [Example 748]
IC50: < 100 nM

compound: CC[C@H]1CC[C@H](c2ccc(-c3nc(S(=O)(=O)Nc4cc5nc[nH]c(=O)c5cc4OC)cs3)cc2)CC1 [Example 575]
IC50: 1000 to 100000 nM

compound: COc1cc(C(=O)O)c(F)cc1NS(=O)(=O)c1csc(-c2ccc([C@H]3CC[C@@H](C(C)(C)C)CC3)c(OC(C)C)c2F)n1 [Example 597]
IC50: < 100 nM

compound: COc1cc(C(=O)O)c(F)cc1NS(=O)(=O)c1csc(-c2cc(F)c(C3CCC(C)(C)CC3)cc2F)n1 [Example 519]
IC50: 100 to 500 nM

compound: COc1cc(C(=O)O)c(F)cc1NS(=O)(=O)c1csc(-c2ccc(C3CCC(C(F)(F)F)CC3)c(OC(C)C)c2F)n1 (stereo not drawn) [Example 811]
IC50: 100 to 500 nM

compound: COc1cc(C(=O)O)c(F)cc1NS(=O)(=O)c1ccc(-c2ccc(C)cc2)s1 [Example 233]
IC50: 100 to 500 nM

compound: COc1cc(C(=O)O)c(F)cc1NS(=O)(=O)c1csc(-c2ccc(C3CCC(C)(C)CC3)cc2OC(F)(F)F)n1 [Example 543]
IC50: < 100 nM

compound: COc1cc(C(=O)O)ccc1NS(=O)(=O)c1cnc(-c2ccc(C3CCC(c4ccccc4)CC3)cc2)s1 (stereo not drawn) [Example 452]
IC50: 100 to 500 nM

compound: COc1cncc(C#Cc2nc(S(=O)(=O)Nc3ccc(C(=O)O)cc3OC)cs2)c1 [Example 248]
IC50: 100 to 500 nM

compound: COc1cc(C(=O)O)ccc1NS(=O)(=O)c1csc(N2CCN(c3nccs3)CC2)n1 [Example 264]
IC50: 1000 to 100000 nM

compound: COc1cc(C(=O)O)c(F)cc1NS(=O)(=O)c1ncc(-c2ccc(C3=CCC(C(C)(C)C)CC3)cc2)s1 (stereo not drawn) [Example 633]
IC50: 100 to 500 nM

compound: O=C(O)c1ccc(NS(=O)(=O)c2cnc(-c3ccc(F)cc3)s2)cc1 [Example 60]
IC50: 500 to 1000 nM

compound: COc1cc(C(=O)O)ccc1NS(=O)(=O)N1Cc2nc(-c3ccc4c(c3)CCCC4)sc2C1 [Example 386]
IC50: 100 to 500 nM

compound: COc1cc(C(=O)O)c(F)cc1NS(=O)(=O)c1coc(-c2ccc([C@H]3CC[C@@H](C(F)(F)F)CC3)cc2)n1 [Example 493]
IC50: < 100 nM

compound: COc1cc(C(=O)O)ccc1NS(=O)(=O)c1csc(C#Cc2cccc(F)c2)n1 [Example 203]
IC50: < 100 nM

compound: COc1cc(C(=O)O)ccc1NS(=O)(=O)c1csc(N2C[C@@H]3C[C@H]2CN3c2ccccc2)n1 [Example 289]
IC50: 500 to 1000 nM

compound: COc1cc(C(=O)O)ccc1NS(=O)(=O)c1csc(-c2ccc(C3CCC(OC)CC3)cc2)n1 (stereo not drawn) [Example 380]
IC50: 100 to 500 nM

compound: COc1cc(C(=O)O)ccc1NS(=O)(=O)c1csc(C#Cc2ccc(F)c(OC(F)(F)F)c2)n1 [Example 393]
IC50: < 100 nM

compound: O=C(O)c1cnc(NS(=O)(=O)c2cnc(-c3ccc(F)cc3)s2)nc1 [Example 83]
IC50: 1000 to 100000 nM

compound: COc1cc(C(=O)O)c(F)cc1NS(=O)(=O)c1csc(-c2ccc(-c3ccc(-c4ccc(C56CC7C[C@H](C5)C[C@H](C7)C6)cc4)cc3C(F)(F)F)cc2C(F)(F)F)n1 [Example 737]
IC50: 1000 to 100000 nM

compound: C=C(c1ccc(-c2ncc(S(=O)(=O)Nc3ccc(C(=O)O)cc3OC)s2)cc1)C1CC1 [Example 450]
IC50: < 100 nM

compound: O=S(=O)(Nc1ccccc1)c1cnc(-c2ccc(F)cc2)s1 [Example 24]
IC50: > 100000 nM

compound: COc1cc(C(=O)O)ccc1NS(=O)(=O)c1cnc(-c2ccc(C3=CCC4(CC3)CC4)cc2)s1 [Example 736]
IC50: 100 to 500 nM

compound: COc1cc(C(=O)O)ccc1NS(=O)(=O)c1csc(C#Cc2ccccc2C)n1 [Example 187]
IC50: < 100 nM

compound: CC[C@H]1CC[C@H](c2ccc(-c3nc(S(=O)(=O)Nc4cc(F)c(C(=O)O)cc4OC)co3)cc2)CC1 [Example 495]
IC50: < 100 nM

compound: COc1cc(C(=O)O)c(F)cc1NS(=O)(=O)c1csc(-c2ccc(C3CCC4(CC3)CC4)cc2)n1 [Example 778]
IC50: < 100 nM

compound: COc1cc(C(=O)O)ccc1NS(=O)(=O)c1csc(-c2ccc(C(=O)c3ccccc3)cc2)n1 [Example 297]
IC50: 500 to 1000 nM

compound: COc1ccc(C#Cc2nc(S(=O)(=O)Nc3cc(F)c(C(=O)O)cc3OC)cs2)cc1 [Example 221]
IC50: < 100 nM

Value source: patent US12384753B2
